System: rodent lifetime carcinogenesis bioassay, tumor incidence TD50
test protocol: carcinogenic potency in animals, long-term in vivo studies, CPDB compilation (AID 1745844)
measurement conditions: rat; strain Fischer 344; females; in feed; site: liver; lesion: hepatocellular adenoma; dosed 104 weeks; study length 104 weeks
Calls of active or inactive are those of the source. How the calls were made is not given here.
This section presents molecules with their documented TD50 values.

molecule: ClC=CCCl
value observed: 334 mg/kg/day

molecule: Brc1cc(Br)c(-c2cc(Br)c(Br)cc2Br)cc1Br
value observed: 0.7 mg/kg/day

INPUT: Request body: readout TD50, system rodent lifetime carcinogenesis bioassay, tumor incidence TD50, query `Nc1c(Cl)c(Cl)nc(C(=O)O)c1Cl` . Return the value.
OUTPUT: 15800 mg/kg/day (inactive)

###

Tested on: rodent lifetime carcinogenesis bioassay, tumor incidence TD50
test protocol: carcinogenic potency in animals, long-term in vivo studies, CPDB compilation (AID 1745844)
measurement conditions: rat; strain Sprague-Dawley; females; by gavage; site: forestomach; lesion: benign tumor; dosed 52 weeks; study length 156 weeks
value type: TD50

INPUT: # lookup: TD50 of c1ccc(C2CO2)cc1 (stereo unspecified)
OUTPUT: 503 mg/kg/day

###

Tested on: rodent lifetime carcinogenesis bioassay, tumor incidence TD50
test protocol: carcinogenic potency in animals, long-term in vivo studies, CPDB compilation (AID 1745844)
measurement conditions: mouse; strain B6C3F1; males; in feed; site: seminal vesicle; lesion: undifferentiated carcinoma; dosed 103 weeks; study length 104 weeks
value type: TD50

INPUT: # lookup: TD50 of `COC(=O)[C@H]1[C@H]2C[C@@H]3c4[nH]c5cc(OC)ccc5c4CCN3C[C@H]2C[C@@H](OC(=O)c2cc(OC)c(OC)c(OC)c2)[C@@H]1OC`
OUTPUT: 8.39 mg/kg/day

###

Tested on: rodent lifetime carcinogenesis bioassay, tumor incidence TD50
test protocol: carcinogenic potency in animals, long-term in vivo studies, CPDB compilation (AID 1745844)
measurement conditions: rat; strain Fischer 344; males; in drinking water; site: liver; lesion: hepatocellular carcinoma; dosed 30 weeks; study length 100 weeks
value type: TD50

INPUT: Request body: readout TD50, system rodent lifetime carcinogenesis bioassay, tumor incidence TD50, query `CN=[N+](C)[O-]` . Return the value.
OUTPUT: 0.0677 mg/kg/day

###

System: rodent lifetime carcinogenesis bioassay, tumor incidence TD50
test protocol: carcinogenic potency in animals, long-term in vivo studies, CPDB compilation (AID 1745844)
measurement conditions: mouse; strain B6C3F1; males; by gavage; site: liver; lesion: hepatocellular adenoma + hepatocellular carcinoma + neoplastic nodule; dosed 103 weeks; study length 105 weeks
value type: log10 of TD50 (log10 of the value in mg/kg/day)
Form field - Quantity: TD50; Unit: mg/kg/day; Scale: log10

molecule: ClC=C(Cl)Cl
log10 of TD50: 2.38

INPUT: # lookup: log10 of TD50 of CC(Cl)CCl (configuration not stated)
OUTPUT: 2.36

INPUT: Again, but for `Clc1ccccc1`
OUTPUT: 2.58

INPUT: Again, but for `C=CC(=O)NCO`
OUTPUT: 1.47

INPUT: Again, but for `Nc1ccc(Cl)cc1`
OUTPUT: 1.69

INPUT: Again, but for CC(CCl)OC(C)CCl (configuration not stated)
OUTPUT: 2.14

INPUT: Again, but for `C=C(C)[C@H]1CC=C(C)C(=O)C1`
OUTPUT: 4.80

###

Test system: rodent lifetime carcinogenesis bioassay, tumor incidence TD50
test protocol: carcinogenic potency in animals, long-term in vivo studies, CPDB compilation (AID 1745844)
measurement conditions: mouse; strain C3H (MTV+); males; in drinking water; site: liver; lesion: neoplastic nodule; dosed 30 weeks; study length 54 weeks
value type: TD50 (mg/kg/day)
Give the value in mg/kg/day but do not write mg/kg/day after it.

INPUT: Request body: readout TD50, system rodent lifetime carcinogenesis bioassay, tumor incidence TD50, query `CN(N=O)C(N)=O` . Return the value.
OUTPUT: 2.53

###

Test system: rodent lifetime carcinogenesis bioassay, tumor incidence TD50
test protocol: carcinogenic potency in animals, long-term in vivo studies, CPDB compilation (AID 1745844)
measurement conditions: hamster; strain Syrian Golden; males; in drinking water; site: liver; lesion: histiocytoma, malignant; dosed 100 weeks; study length 100 weeks
value type: TD50

INPUT: # lookup: TD50 of `CNN`
OUTPUT: 9.2 mg/kg/day

###

Tested on: rodent lifetime carcinogenesis bioassay, tumor incidence TD50
test protocol: carcinogenic potency in animals, long-term in vivo studies, CPDB compilation (AID 1745844)
measurement conditions: rat; strain Fischer 344; females; by gavage; site: stomach; lesion: squamous-cell carcinoma + squamous-cell papilloma; dosed 103 weeks; study length 105 weeks
value type: TD50

INPUT: # lookup: TD50 of `CC1(C)COC1=O`
OUTPUT: 333 mg/kg/day

###

Test system: rodent lifetime carcinogenesis bioassay, tumor incidence TD50
test protocol: carcinogenic potency in animals, long-term in vivo studies, CPDB compilation (AID 1745844)
measurement conditions: rat; strain Buffalo; females; in feed; site: mammary gland; lesion: adenofibroma; dosed 46 weeks; study length 64 weeks
value type: TD50

INPUT: # lookup: TD50 of `O=CNNc1nc(-c2ccc([N+](=O)[O-])o2)cs1`
OUTPUT: 80.5 mg/kg/day

###

Tested on: rodent lifetime carcinogenesis bioassay, tumor incidence TD50
test protocol: carcinogenic potency in animals, long-term in vivo studies, CPDB compilation (AID 1745844)
measurement conditions: mouse; strain B6C3F1; males; in feed; site: all sites; lesion: malignant lymphoma, lymphocytic type; dosed 104 weeks; study length 105 weeks
value type: TD50 (mg/kg/day)
Give the value in mg/kg/day but do not write mg/kg/day after it.

INPUT: # lookup: TD50 of `O=[N+]([O-])c1cc(N(CCO)CCO)ccc1NCCO`
OUTPUT: 5450

###

Tested on: rodent lifetime carcinogenesis bioassay, tumor incidence TD50
test protocol: carcinogenic potency in animals, long-term in vivo studies, CPDB compilation (AID 1745844)
measurement conditions: rat; strain Fischer 344; males; by gavage; site: nervous system; lesion: several types; types named in the paper; dosed 28 weeks; study length 104 weeks
value type: TD50

INPUT: # lookup: TD50 of `CN(N=O)C(N)=O`
OUTPUT: 2.03 mg/kg/day

###

Tested on: rodent lifetime carcinogenesis bioassay, tumor incidence TD50
test protocol: carcinogenic potency in animals, long-term in vivo studies, CPDB compilation (AID 1745844)
measurement conditions: mouse; strain B6C3F1; males; by gavage; site: multiple organs; lesion: malignant lymphoma, lymphocytic type; dosed 102 weeks; study length 104 weeks
value type: TD50 (mg/kg/day)
Give the value in mg/kg/day but do not write mg/kg/day after it.

INPUT: # lookup: TD50 of `ClC(Cl)Br`
OUTPUT: 74.2

###

Test system: rodent lifetime carcinogenesis bioassay, tumor incidence TD50
test protocol: carcinogenic potency in animals, long-term in vivo studies, CPDB compilation (AID 1745844)
measurement conditions: mouse; strain C57BL/10J; females; i.p.; site: liver; lesion: hemangioma; dosed 35 weeks; study length 59 weeks
value type: TD50

INPUT: # lookup: TD50 of `C=COC(N)=O`
OUTPUT: 0.147 mg/kg/day

###

System: rodent lifetime carcinogenesis bioassay, tumor incidence TD50
test protocol: carcinogenic potency in animals, long-term in vivo studies, CPDB compilation (AID 1745844)
measurement conditions: mouse; strain B6C3F1; males; inhaled; site: brain; lesion: olfactory lobe, neuroblastoma malignant; dosed 13 weeks; study length 104 weeks
value type: TD50

INPUT: # lookup: TD50 of `C=CC=C`
OUTPUT: 394 mg/kg/day

###

Tested on: rodent lifetime carcinogenesis bioassay, tumor incidence TD50
test protocol: carcinogenic potency in animals, long-term in vivo studies, CPDB compilation (AID 1745844)
measurement conditions: rat; strain Fischer 344; males; in feed; site: preputial gland; lesion: one or several types; types not named; dosed 53 weeks; study length 63 weeks
value type: TD50 (mg/kg/day)
Give the value in mg/kg/day but do not write mg/kg/day after it.

INPUT: Request body: readout TD50, system rodent lifetime carcinogenesis bioassay, tumor incidence TD50, query `Cn1c(N)nc2c3cccnc3ccc21` . Return the value.
OUTPUT: 6.87

###

This section presents compounds with their documented TD50 values.
Test system: rodent lifetime carcinogenesis bioassay, tumor incidence TD50
test protocol: carcinogenic potency in animals, long-term in vivo studies, CPDB compilation (AID 1745844)
measurement conditions: rat; strain Osborne-Mendel; males; by gavage; site: any site (literature study); lesion: several types; types named in the paper; dosed 78 weeks; study length 110 weeks
Give the value in mg/kg/day but do not write mg/kg/day after it.

Answered cases to consult:
molecule: ClC=C(Cl)Cl
assayed target: rodent lifetime carcinogenesis bioassay, tumor incidence TD50
value type: TD50
display unit: mg/kg/day
value observed: 16000
//
molecule: ClC(Cl)Cl
assayed target: rodent lifetime carcinogenesis bioassay, tumor incidence TD50
value type: TD50
display unit: mg/kg/day
value observed: 194

INPUT: # lookup: TD50 of `C=CCCl`
OUTPUT: 28.1
